Cited source for all entries: patent US11180494B2

biological target: human integrin αvβ6 (Homo sapiens (Human), UniProt P06756+P18564); test: Proximity-based integrin receptor binding assay (ALPHASCREEN) for inhibitor potency; settings: inhibition of binding of TGF-b1 LAP to human integrin αvβ6; values given in ranges
Sequence (P06756 31-992): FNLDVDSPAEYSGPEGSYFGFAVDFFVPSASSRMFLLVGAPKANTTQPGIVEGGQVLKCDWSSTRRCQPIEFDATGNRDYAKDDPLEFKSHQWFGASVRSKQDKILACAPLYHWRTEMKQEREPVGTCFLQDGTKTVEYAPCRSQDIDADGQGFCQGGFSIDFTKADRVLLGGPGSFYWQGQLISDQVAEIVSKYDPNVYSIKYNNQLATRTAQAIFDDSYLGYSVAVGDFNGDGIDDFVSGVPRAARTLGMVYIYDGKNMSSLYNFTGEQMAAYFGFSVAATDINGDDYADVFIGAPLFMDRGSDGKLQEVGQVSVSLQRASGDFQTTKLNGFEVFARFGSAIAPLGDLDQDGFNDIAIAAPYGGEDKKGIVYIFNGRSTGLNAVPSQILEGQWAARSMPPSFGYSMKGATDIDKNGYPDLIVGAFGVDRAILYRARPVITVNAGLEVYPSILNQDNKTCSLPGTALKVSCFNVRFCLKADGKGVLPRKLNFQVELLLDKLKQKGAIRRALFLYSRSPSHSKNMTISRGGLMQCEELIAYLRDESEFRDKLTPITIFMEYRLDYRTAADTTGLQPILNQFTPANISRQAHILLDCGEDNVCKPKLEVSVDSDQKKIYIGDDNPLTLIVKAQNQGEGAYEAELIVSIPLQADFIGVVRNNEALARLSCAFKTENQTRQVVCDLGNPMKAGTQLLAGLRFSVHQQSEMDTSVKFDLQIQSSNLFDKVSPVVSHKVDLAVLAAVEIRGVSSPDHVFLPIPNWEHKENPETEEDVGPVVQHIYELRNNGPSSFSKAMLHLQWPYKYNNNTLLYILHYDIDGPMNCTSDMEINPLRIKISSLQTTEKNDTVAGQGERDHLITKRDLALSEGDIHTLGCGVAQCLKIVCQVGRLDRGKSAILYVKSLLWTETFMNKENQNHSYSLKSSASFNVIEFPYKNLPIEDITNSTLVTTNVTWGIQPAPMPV
Sequence (P18564 22-707): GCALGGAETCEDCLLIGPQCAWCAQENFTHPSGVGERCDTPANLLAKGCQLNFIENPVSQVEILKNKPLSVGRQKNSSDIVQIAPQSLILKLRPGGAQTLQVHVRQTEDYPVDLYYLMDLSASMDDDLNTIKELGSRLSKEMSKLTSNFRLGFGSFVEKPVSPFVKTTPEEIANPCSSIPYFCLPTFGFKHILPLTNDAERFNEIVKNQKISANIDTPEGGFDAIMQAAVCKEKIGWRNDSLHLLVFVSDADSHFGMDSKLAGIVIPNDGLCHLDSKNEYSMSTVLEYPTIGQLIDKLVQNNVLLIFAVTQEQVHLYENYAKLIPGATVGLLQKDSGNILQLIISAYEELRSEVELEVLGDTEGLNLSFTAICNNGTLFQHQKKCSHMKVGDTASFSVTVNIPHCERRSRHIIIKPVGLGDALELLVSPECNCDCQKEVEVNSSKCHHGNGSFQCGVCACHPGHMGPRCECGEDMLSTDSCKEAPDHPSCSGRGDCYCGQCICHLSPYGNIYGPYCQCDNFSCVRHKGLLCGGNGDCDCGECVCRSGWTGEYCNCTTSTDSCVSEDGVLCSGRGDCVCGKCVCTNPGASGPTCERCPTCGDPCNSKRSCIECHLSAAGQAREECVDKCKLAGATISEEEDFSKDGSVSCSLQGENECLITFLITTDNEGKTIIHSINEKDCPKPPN
Known IC50 of a selection of molecules

| molecule | target_of_assay | IC50 |
| --- | --- | --- |
| CC(C)(CC#N)C(=O)NC(CCO[C@H]1C[C@H](CCc2ccc3c(n2)NCCC3)C1)C(=O)O (stereo partly drawn) [Compound 93] | human integrin αvβ6 (Homo sapiens (Human), UniProt P06756+P18564) | 0.05 to 0.25 µM |
| CC(CO[C@H]1C[C@H](CCc2ccc3c(n2)NCCC3)C1)C(NC(=O)OC(C)(C)C)C(=O)O (single isomer, unassigned) [Example 145B] | human integrin αvβ6 (Homo sapiens (Human), UniProt P06756+P18564) | 0.05 to 0.25 µM |
| O=C(O)[C@H](CCO[C@H]1C[C@H](CCc2ccc3c(n2)NCCC3)C1)NC(=O)C1(Cc2cccnc2)CC1 [Compound 185] | human integrin αvβ6 (Homo sapiens (Human), UniProt P06756+P18564) | < 0.05 µM |
| CC(C)(C)OC(=O)NC(CCO[C@H]1C[C@H](CCc2ccc3c(n2)NCCC3)C1)C(=O)O (stereo partly drawn) [Compound 86] | human integrin αvβ6 (Homo sapiens (Human), UniProt P06756+P18564) | 0.25 to 1 µM |
| CC(C)(C)OC(=O)NC(CCO[C@H]1C[C@H](CCc2ccc3c(n2)NCCC3)C1)C(=O)O (stereo partly drawn) [Compound 101] | human integrin αvβ6 (Homo sapiens (Human), UniProt P06756+P18564) | < 0.05 µM |
| CC(C)(C(=O)NC(CCO[C@H]1C[C@H](CCc2ccc3c(n2)NCCC3)C1)C(=O)O)c1ccc(F)cc1 (stereo partly drawn) [Compound 87] | human integrin αvβ6 (Homo sapiens (Human), UniProt P06756+P18564) | 0.25 to 1 µM |

###

Known IC50 of a selection of compounds
biological target: human integrin αvβ6 (Homo sapiens (Human), UniProt P06756+P18564); assay: Proximity-based integrin receptor binding assay (ALPHASCREEN) for inhibitor potency; details: inhibition of binding of TGF-b1 LAP to human integrin αvβ6; values given in ranges

| compound | IC50 |
| --- | --- |
| CS(=O)(=O)N1CC[C@H](OC(=O)N[C@@H](CCO[C@H]2C[C@H](CCc3ccc4c(n3)NCCC4)C2)C(=O)O)C1 | < 50 nM |
| O=C(NC(CCOCCCCc1ccc2c(n1)NCCC2)C(=O)O)c1ccccc1 (stereo not drawn) | 250 to 1000 nM |
| CC(C)(OC(=O)N[C@@H](CCO[C@H]1C[C@H](CCc2ccc3c(n2)NCCC3)C1)C(=O)O)C(F)(F)F | < 50 nM |
| O=C(N[C@@H](CCO[C@H]1C[C@H](CCc2ccc3c(n2)NCCC3)C1)C(=O)O)O[C@H]1CC[C@@H](c2ccccc2)CC1 | 50 to 250 nM |
| O=C(N[C@@H](CCO[C@H]1C[C@@H](CCc2ccc3c(n2)NCCC3)C1)C(=O)O)c1ccc(F)c(F)c1 | 50 to 250 nM |
| O=C(O)C(CCO[C@H]1C[C@H](CCc2ccc3cccnc3n2)C1)Nc1ncnc2ccccc12 (stereo partly drawn) [Example 228] | < 50 nM |
| CC(=O)N1CC[C@@H](OC(=O)N[C@@H](CCO[C@H]2C[C@H](CCc3ccc4c(n3)NCCC4)C2)C(=O)O)C1 | > 1000 nM |
| O=C(O)C(CCO[C@H]1C[C@H](CCc2ccc3c(n2)NCCC3)C1)NC(=O)[C@@H](O)c1ccccc1 (stereo partly drawn) [Compound 78] | > 1000 nM |
| O=C(N[C@@H](CCO[C@H]1C[C@H](CCc2ccc3c(n2)NCCC3)C1)C(=O)O)c1cccc(Cl)c1F | < 50 nM |
| CC(C)(C)OC(=O)N1CC[C@H](OC(=O)N[C@@H](CCO[C@H]2C[C@H](CCc3ccc4c(n3)NCCC4)C2)C(=O)O)C1 | < 50 nM |
| CC(C)(C)OC(=O)N1CC(C#Cc2ccccc2)(OC(=O)N[C@@H](CCO[C@H]2C[C@H](CCc3ccc4c(n3)NCCC4)C2)C(=O)O)C1 | < 50 nM |
| O=C(N[C@@H](CCO[C@H]1C[C@H](CCc2ccc3c(n2)NCCC3)C1)C(=O)O)c1cccc2cccnc12 | 250 to 1000 nM |
| CS(=O)(=O)CCCC(=O)N[C@@H](CCO[C@H]1C[C@H](CCc2ccc3c(n2)NCCC3)C1)C(=O)O | 50 to 250 nM |
| CC(C)(CO)C(=O)NC(CCO[C@H]1C[C@H](CCc2ccc3c(n2)NCCC3)C1)C(=O)O (stereo partly drawn) [Compound 104] | < 50 nM |
| O=C(N[C@@H](CCO[C@H]1C[C@H](CCc2ccc3c(n2)NCCC3)C1)C(=O)O)c1ccnc2cc[nH]c12 (relative stereo) | < 50 nM |
| C[C@@H](CNC(=O)OC(C)(C)C)OC(=O)N[C@@H](CCO[C@H]1C[C@H](CCc2ccc3c(n2)NCCC3)C1)C(=O)O | < 50 nM |
| Cn1ccc2cc(C(=O)N[C@@H](CCO[C@H]3C[C@H](CCc4ccc5c(n4)NCCC5)C3)C(=O)O)cnc21 | 250 to 1000 nM |
| O=C(N[C@@H](CCO[C@H]1C[C@H](CCc2ccc3c(n2)NCCC3)C1)C(=O)O)c1ccccc1Cl | < 50 nM |
| O=C(N[C@@H](CCO[C@H]1C[C@H](CCc2ccc3c(n2)NCCC3)C1)C(=O)O)c1ccccc1F | < 50 nM |
| CC(C)(C)OC(=O)N1CC(C)(C(=O)N[C@@H](CCO[C@H]2C[C@H](CCc3ccc4c(n3)NCCC4)C2)C(=O)O)C1 | < 50 nM |
| O=C(N[C@@H](CCO[C@H]1C[C@H](CCc2ccc3c(n2)NCCC3)C1)C(=O)O)c1cccc2ncccc12 | < 50 nM |
| CC(C)(C(=O)NC(CCO[C@H]1C[C@H](CCc2ccc3c(n2)NCCC3)C1)C(=O)O)c1ccc(F)cc1 (stereo partly drawn) [Compound 102] | < 50 nM |
| O=C(O)C(CCO[C@H]1C[C@H](CCc2ccc3c(n2)NCCC3)C1)NC(=O)[C@H](CO)c1ccccc1 (stereo partly drawn) [Compound 46] | 250 to 1000 nM |
| O=C(N[C@@H](CCO[C@H]1C[C@@H](CCc2ccc3c(n2)NCCC3)C1)C(=O)O)c1cccc(-c2cncs2)c1 | 250 to 1000 nM |
| O=C(N[C@@H](CCO[C@H]1C[C@H](CCc2ccc3c(n2)NCCC3)C1)C(=O)O)C1CCc2ccccc21 (single isomer, unassigned) [96*,††] | 250 to 1000 nM |
| CC(C)(C)NC(=O)N[C@@H](CCO[C@H]1C[C@H](CCc2ccc3c(n2)NCCC3)C1)C(=O)O | < 50 nM |
| CCC(CC)(C(=O)N[C@@H](CCO[C@H]1C[C@H](CCc2ccc3c(n2)NCCC3)C1)C(=O)O)c1ccccc1 | 50 to 250 nM |

###

molecular target: human integrin αvβ6 (Homo sapiens (Human), UniProt P06756+P18564); experiment: Proximity-based integrin receptor binding assay (ALPHASCREEN) for inhibitor potency; conditions: inhibition of binding of TGF-b1 LAP to human integrin αvβ6; values given in ranges
pIC50: −log10 of the molar value.

| compound | pIC50 |
| --- | --- |
| O=C(N[C@@H](CCO[C@H]1C[C@H](CCc2ccc3c(n2)NCCC3)C1)C(=O)O)c1cc(F)cc(F)c1 | > 7.30 |
| O=C(N[C@@H](CCO[C@H]1C[C@H](CCc2ccc3c(n2)NCCC3)C1)C(=O)O)c1cccnc1 | > 7.30 |
| O=C(O)C(CCO[C@H]1C[C@H](CCc2ccc3c(n2)NCCC3)C1)NC(=O)[C@H](O)c1ccccc1 (stereo partly drawn) [Compound 81] | < 6.00 |
| CC(C)(C(=O)NC(CCO[C@H]1C[C@H](CCc2ccc3c(n2)NCCC3)C1)C(=O)O)c1cccnc1 (stereo partly drawn) [Compound 91] | 6.60 to 7.30 |
| CCCCC(=O)NC(CCOC1CC(CCc2ccc3c(n2)NCCC3)C1)C(=O)O (stereo not drawn) | 6.60 to 7.30 |
| O=C(NC(CCO[C@H]1C[C@H](CCc2ccc3c(n2)NCCC3)C1)C(=O)O)c1cccc(F)c1Cl (stereo partly drawn) [Compound 60] | 6.60 to 7.30 |
| CC(=O)N1CC(OC(=O)N[C@@H](CCO[C@H]2C[C@H](CCc3ccc4c(n3)NCCC4)C2)C(=O)O)C1 | 6.00 to 6.60 |
| O=C(N[C@@H](CCO[C@H]1C[C@H](CCc2ccc3c(n2)NCCC3)C1)C(=O)O)O[C@H]1C[C@@H](c2ccccc2)C1 | 6.00 to 6.60 |
| CC(C)(Cc1ccccc1)C(=O)NC(CCO[C@H]1C[C@H](CCc2ccc3c(n2)NCCC3)C1)C(=O)O (stereo partly drawn) [Compound 85] | 6.00 to 6.60 |
| O=C(O)C(CCOCCCCc1ccc2c(n1)NCCC2)NC(=O)[C@@H](O)c1ccccc1 (stereo partly drawn) [Compound 75] | 6.00 to 6.60 |
| CC(C)(C)OC(=O)N1CC(C(=O)N[C@@H](CCO[C@H]2C[C@H](CCc3ccc4c(n3)NCCC4)C2)C(=O)O)C1 | > 7.30 |
| CCC(CC)CC(=O)NC(CCO[C@H]1C[C@H](CCc2ccc3c(n2)NCCC3)C1)C(=O)O (stereo partly drawn) [Compound 63] | > 7.30 |
| CC1(C(=O)NC(CCO[C@H]2C[C@H](CCc3ccc4c(n3)NCCC4)C2)C(=O)O)COC1 (stereo partly drawn) [Compound 88] | 6.60 to 7.30 |
| CC(C)(C)OC(=O)N1CC(OC(=O)N[C@@H](CCO[C@H]2C[C@H](CCc3ccc4c(n3)NCCC4)C2)C(=O)O)C1 | > 7.30 |
| O=C(O)C(CCO[C@H]1C[C@H](CCc2ccc3c(n2)NCCC3)C1)NC(=O)[C@H](O)c1ccccc1 (stereo partly drawn) [Compound 80] | 6.60 to 7.30 |
